All figures here come from ChEMBL document CHEMBL1136657.

# System: Staphylococcus aureus
# TEST DESCRIPTION: Minimum inhibitory concentration against Staphylococcus aureus (GC 4545) was determined
# Type: functional
MEASUREMENT TYPE: MIC (µg/mL)
Provide only the numeric value, understood in µg/mL.

See these solved cases before continuing.
COc1ccc2cc(CO[C@H]3[C@H](O)[C@H](O)[C@@H](O[C@H]4[C@H](O)[C@H](O)[C@@H](Oc5ccc(C[C@H]6NC(=O)[C@H]([C@@H](C)c7ccccc7)NC(=O)CNC(=O)[C@H](CO)NC(=O)[C@@H]([C@@H](O)[C@@H]7CN=C(N)N7[C@H]7O[C@H](O)[C@@H](O)[C@H](O)[C@@H]7O)NC(=O)[C@H]([C@@H](O)[C@@H]7CN=C(N)N7)NC6=O)cc5)O[C@@H]4CO)O[C@@H]3CO)ccc2c1 = 0.5
COc1ccc2cc(CO[C@H]3[C@H](O)[C@@H](CO)OC(O[C@H]4[C@H](O)[C@H](O)[C@@H](Oc5ccc(C[C@H]6NC(=O)[C@H]([C@@H](C)c7ccccc7)NC(=O)CNC(=O)[C@H](CO)NC(=O)[C@@H]([C@@H](O)[C@@H]7CN=C(N)N7[C@H]7O[C@H](O)[C@@H](O)[C@H](O)[C@@H]7O)NC(=O)[C@H]([C@@H](O)[C@@H]7CN=C(N)N7)NC6=O)cc5)O[C@@H]4CO)[C@H]3O)ccc2c1 (some centres undefined) = 2
COc1ccc2cc(CO[C@@H]3[C@@H](O[C@H]4[C@H](O)[C@H](O)[C@@H](Oc5ccc(C[C@H]6NC(=O)[C@H]([C@@H](C)c7ccccc7)NC(=O)CNC(=O)[C@H](CO)NC(=O)[C@@H]([C@@H](O)[C@@H]7CN=C(N)N7[C@H]7O[C@H](O)[C@@H](O)[C@H](O)[C@@H]7O)NC(=O)[C@H]([C@@H](O)[C@@H]7CN=C(N)N7)NC6=O)cc5)O[C@@H]4CO)O[C@H](CO)[C@@H](O)[C@@H]3O)ccc2c1 = 128

Now consider the entry below.
Prompt: Lab note: need MIC for COc1ccc2cc(COC[C@H]3O[C@H](O[C@H]4[C@H](O)[C@H](O)[C@@H](Oc5ccc(C[C@H]6NC(=O)[C@H]([C@@H](C)c7ccccc7)NC(=O)CNC(=O)[C@H](CO)NC(=O)[C@@H]([C@@H](O)[C@@H]7CN=C(N)N7[C@H]7O[C@H](O)[C@@H](O)[C@H](O)[C@@H]7O)NC(=O)[C@H]([C@@H](O)[C@@H]7CN=C(N)N7)NC6=O)cc5)O[C@@H]4CO)[C@@H](O)[C@@H](O)[C@@H]3O)ccc2c1 on Staphylococcus aureus, anyone have it?
Completion: 1
